All values here come from PubChem BioAssay AID662.

- testDescription: Cell signaling CRE-BLA (Fsk stim)
- settings: CHO CRE-bla reporter (cAMP response element driving beta-lactamase), forskolin EC10, beta-lactamase ratio; series mostly up to 38.2 µM
In all, about 71,000 compounds went through this assay and about 1,800 (2.5%) were called active. Not shown: some 26% with an inconclusive outcome. The call rests on the fitted dose curve; in most records, active means well fitted activation curve with a large enough effect in the signal ratio, with a control signal flat (not every such curve was filed as active); inconclusive means small, poorly fitted or top-dose-only effect, or effect the other way, or a change in a side signal; inactive means flat fitted curve, though single readings scatter; the % refers to the signal ratio. This is one part of a sample in which actives are shown more often than they occur.
Just give me one of these, please: Yes (active), No (inactive)

IN: Record lookup: outcome of this test for COc1ccccc1C(=O)n1nc(-c2ccccc2)nc1N ?
OUT: No

IN: Follow-up item: CCN(CC)CCN1C(=O)C(=O)/C(=C(/O)c2ccccc2)C1c1ccccc1F (centres undefined)
OUT: No

IN: Follow-up item: OC(CCl)CCl
OUT: No

IN: Follow-up item: COc1cccc(-c2nn(C)c3sc(C(=O)N4CCN(c5ccccc5)CC4)cc23)c1
OUT: Yes

IN: Follow-up item: Cc1nc2cnc(N3CCN(C)CC3)nc2n(C[C@H]2CCCO2)c1=O
OUT: No

IN: Follow-up item: NC(=O)c1ccccc1NC(=O)c1ccccc1F
OUT: No

IN: Follow-up item: O=C(O)c1nccnc1C(=O)Nc1ccc(Br)cn1
OUT: No

IN: Follow-up item: C[C@@H](Nc1nc(-c2ccccc2)nc2c1oc1ccccc12)C(=O)O
OUT: No

IN: Follow-up item: CCCSc1nc2c(c(=O)n(C)c(=O)n2C)n1Cc1ccc(C)cc1
OUT: No

IN: Follow-up item: CCCC(NS(=O)(=O)c1ccc(OC)cc1)C(=O)O (centres undefined)
OUT: No

IN: Follow-up item: Cc1nnc2sc(-c3ccco3)nn12
OUT: No

IN: Follow-up item: C=CC(=C)CCC=C(C)C
OUT: No

IN: Follow-up item: COc1ccccc1NC(=O)CSc1nnc(-c2ccoc2C)n1CCc1ccccc1
OUT: No

IN: Follow-up item: O=C(O)CC(C(=O)O)C(CC(=O)O)C(=O)O (centres undefined)
OUT: No

IN: Follow-up item: Cc1ccc2nc(-c3ccccc3)cc(C(=O)O)c2c1
OUT: No

IN: Follow-up item: Cn1cc(S(=O)(=O)N2CCC(Cc3ccccc3)CC2)c(=O)n(C)c1=O
OUT: No

IN: Follow-up item: COC(=O)C1(C)C=CCN1C(=O)c1ccccc1 (centres undefined)
OUT: No

IN: Follow-up item: Cc1nc2cnc(N3CCN(C)CC3)nc2n(CCC#N)c1=O
OUT: No

IN: Follow-up item: Cc1cccn2c(=O)c3cc(C#N)c(=O)n(CCCN4CCOCC4)c3nc12
OUT: Yes

IN: Follow-up item: COc1ccc(-c2nn3c(-c4ccccc4)nnc3s2)cc1OC
OUT: Yes

IN: Follow-up item: COc1ccccc1NC(=O)CSc1nc2sc(C)c(C)c2c(=O)n1Cc1ccco1
OUT: Yes

IN: Follow-up item: COc1ccc(OC)c(NC(=O)CSc2nc(N)c(-c3ccccc3)c(=O)[nH]2)c1
OUT: Yes

IN: Follow-up item: O=c1c(CCc2ccccc2)nc2cnc(N3CCNCC3)nc2n1Cc1cccs1
OUT: Yes

IN: Follow-up item: Oc1c(C(c2cccs2)N2CCN(c3ccc(F)cc3)CC2)sc2ncnn12 (centres undefined)
OUT: No

IN: Follow-up item: Cc1cc(C(=O)O)ccc1[N+](=O)[O-]
OUT: No

IN: Follow-up item: CCOc1ccc(Cn2c(SCCCCC#N)nc3c2c(=O)n(C)c(=O)n3C)cc1OCC
OUT: Yes

IN: Follow-up item: CCCOc1ccc(C2c3c(oc4cc(C)c(C)cc4c3=O)C(=O)N2CCCN2CCOCC2)cc1 (centres undefined)
OUT: No

IN: Follow-up item: COc1ccccc1N1CCN(C[C@@H]2CN3C(=O)N(C)c4ccccc4C3=N2)CC1
OUT: No

IN: Follow-up item: CC(=O)Nc1ccc(S(=O)(=O)Nc2ccc(N3CCOCC3)c(F)c2)cc1
OUT: No

IN: Follow-up item: Cc1ccnc(SCCn2c(N(C)Cc3ccccc3)nc3c2c(=O)n(C)c(=O)n3C)n1
OUT: No

IN: Follow-up item: Cn1c(=O)c2c(nc(CN3CCOCC3)n2Cc2ccccc2)n(C)c1=O
OUT: No

IN: Follow-up item: CC1CCc2sc3nc(N4CCN(CCO)CC4)n4ncnc4c3c2C1 (centres undefined)
OUT: Yes

IN: Follow-up item: Cc1nc2nc(SCC(=O)NCc3ccco3)nn2c(C)c1Cc1ccccc1
OUT: No

IN: Follow-up item: COC(=O)C1C(=O)CC(C)(O)C(C(=O)OC)C1c1ccc2c(c1)OCO2 (centres undefined)
OUT: No

IN: Follow-up item: Fc1ccc(-c2ccc(-c3nn4c(-c5ccco5)nnc4s3)o2)cc1
OUT: No

IN: Follow-up item: Cc1nc(SC(C)C)[nH]c(=O)c1Cc1ccccc1
OUT: No

IN: Follow-up item: Cc1nc(SCC(=O)Nc2cc(C)on2)c2c(C)c(C)sc2n1
OUT: Yes

IN: Follow-up item: c1csc(-c2cn3c(n2)SCC3)c1
OUT: No

IN: Follow-up item: COc1ccc(NC(=O)CSc2nnc(-c3cccs3)n2Cc2ccco2)cc1OC
OUT: No
